assay: Antiproliferative activity against human HT-29 cells after 48 hrs by SRB assay; format: functional; details: HT-29, 48 h
Reported values of GI50 for individual entries
Value expressed in µM; do not type the unit.

The examples below pair each entry with its known result.
NS(=O)(=O)NCC1CCN(c2cc(-c3cccc(Cl)c3)ncn2)CC1 47.5
CCOC(=O)c1ccc(-c2cc(N3CCC(CCNS(N)(=O)=O)CC3)ncn2)cc1 6.8
NS(=O)(=O)NCCC1CCN(c2cc(-c3ccc(C(F)(F)F)cc3)ncn2)CC1 22.6
NS(=O)(=O)NCC1CCN(c2cc(-c3cccc4ccccc34)ncn2)CC1 6.8
CCCCc1ccc(-c2cc(N3CCC(CCNS(N)(=O)=O)CC3)ncn2)cc1 13.3
CCOC(=O)c1ccc(-c2cc(N3CCC(CNS(N)(=O)=O)CC3)ncn2)cc1 5.7

Turning to the following compound.
Data point: `NS(=O)(=O)NCCC1CCN(c2cc(-c3ccccc3F)ncn2)CC1` ; GI50 = 51.8
